This listing pairs compounds with measured inhibition in vivo at 40 mg/kg/day.
system: 13762; assay: Antitumor activity against rat 13762 cells allografted in Fischer/344 rat assessed as tumor growth inhibition at 40 mg/kg/day, sc for 10 days followed by double the dose every 2 days from day 11 to day 19 relative to vehicle-treated control; format: functional; conditions: Rattus norvegicus, 13762, sc; route subcutaneous; read-out: TGI

> print(dat)
                                test.smiles                        assay.metric  recorded.measurement
1  CN(N=O)C(=O)NC[C@]1(O)CC[C@H]2[C@@H]3CCc4cc(O)ccc4[C@H]3CC[C@@]21C  inhibition in vivo at 40 mg/kg/day                   23%
2  C[C@]12CC[C@@H]3c4ccc(O)cc4CC[C@H]3[C@@H]1CC[C@@H]2NC(=O)N(CCCl)N=O  inhibition in vivo at 40 mg/kg/day                  100%
3  C[C@]12CC[C@@H]3c4ccc(O)cc4CC[C@H]3[C@@H]1CC[C@@]2(O)CNC(=O)N(CCCl)N=O  inhibition in vivo at 40 mg/kg/day                   85%

// next item, inhibition in vivo at 40 mg/kg/day requested
## Input State inhibition in vivo at 40 mg/kg/day (13762) of `CN(N=O)C(=O)N[C@H]1CC[C@H]2[C@@H]3CCc4cc(O)ccc4[C@H]3CC[C@]12C` .
## Output 15%
